Experiment: Human Caco-2 bidirectional permeability A to B and B to A
Type: in vitro ADME
Details: Caco-2, pH 7.4
Please mark y if the recorded efflux ratio at 2 h is equal to or greater than 6, and n if it falls below.

## Task Test whether the molecule `C[C@@H]1Cc2c(ccc3[nH]ncc23)[C@@H](c2ncc(NC3CN(CCCF)C3)cc2F)N1CC(F)(F)F` records efflux ratio at 2 h of 6 or higher.
## Result y

## Task Please check the record `COc1cc(NC2CN(CCCF)C2)ccc1[C@@H]1c2ccc3[nH]ncc3c2C[C@@H](C)N1CC(C)(C)F` and state if its efflux ratio at 2 h is at or above 6.
## Result n

## Task Confirm if efflux ratio at 2 h reported for the molecule `COCC(F)(F)CN1[C@H](c2ccc(NC3CN(CCCF)C3)cn2)c2ccc3[nH]ncc3c2C[C@H]1C` is 6 or above.
## Result y

## Task Could you please find out whether `COc1cc(NC2CN(CCCF)C2)ccc1[C@@H]1c2ccc3[nH]ncc3c2C[C@@H](C)N1CC(C)(F)F` has efflux ratio at 2 h that meets 6 or exceeds it?
## Result n

## Task Given the entry `COCC(F)(F)CN1[C@H](c2ccc(NC3CN(CCCF)C3)cc2OC)c2ccc3[nH]ncc3c2C[C@H]1C` , answer whether its efflux ratio at 2 h meets or surpasses 6.
## Result y

---

Assay: Human plasma protein binding (equilibrium dialysis)
Format: in vitro ADME
Details: dialysis 18 hours
Measured Endpoint: Human plasma protein binding (% free)
Only the number, expressed in % free, is required.

## Task For the compound shown here, `COc1cc(NC2CN(CCCF)C2)c(F)cc1[C@@H]1c2ccc3[nH]ncc3c2C[C@@H](C)N1CC1(F)CC1` , give the reported Human plasma protein binding (% free).
## Result 11

## Task Given the compound `C[C@@H]1Cc2c(ccc3[nH]nc(F)c23)[C@@H](c2ccc(NC3CN(CCCF)C3)c(F)n2)N1CC(F)(F)F` , what is its reported Human plasma protein binding (% free)?
## Result 6.8

## Task Which Human plasma protein binding (% free) reading was recorded for the compound `CCOc1cc(NC2CN(CCCF)C2)ccc1[C@@H]1c2ccc3[nH]ncc3c2C[C@@H](C)N1CC1(F)CC1` ?
## Result 29

## Task # query: Human plasma protein binding (% free) of entry `COc1cc(NC2CN(CCCF)C2)ccc1[C@@H]1c2ccc3[nH]ncc3c2C[C@@H](C)N1CC1(CF)COC1`
## Result 23

## Task Any idea what its Human plasma protein binding (% free) is? The compound is `COc1cc(OC2CN(CCCF)C2)ccc1[C@@H]1c2ccc3[nH]ncc3c2C[C@@H](C)N1CC1(F)CC1`
## Result 11

## Task Please look up its Human plasma protein binding (% free): `C[C@@H]1Cc2c(ccc3[nH]ncc23)[C@@H](c2ccc(NC3CN(CCCF)C3)cc2)N1CC(F)F`
## Result 10

## Task Consider the compound `C[C@@H]1Cc2c(ccc3[nH]ncc23)[C@@H](c2ncc(NC3CN(CCCF)C3)cc2F)N1CC(F)(F)F` and give its measured Human plasma protein binding (% free).
## Result 16

---

Experiment: Thermodynamic solubility (shake-flask)
Format: physicochemical
Details: aqueous phosphate buffer, 25 °C, pH 7.4, aqueous buffer, thermodynamic from solid, aqueous phosphate buffer pH 7.4, 24 hours
Tick 1 if solubility at 24 h is 200 µM or greater. Tick -1 if solubility at 24 h is less than 200 µM.

## Task Would you say COc1cc(NC2CN(CCCF)C2)ccc1[C@@H]1c2ccc3[nH]ncc3c2C[C@@H](C)N1CC(F)(F)CO [Example 60] shows solubility at 24 h at minimum 200 µM?
## Result 1

## Task Record C[C@@H]1Cc2c(ccc3[nH]ncc23)[C@@H](c2c(F)cc(NC3CN(CCCF)C3)cc2F)N1CC(F)(F)F [Example 8] ; criterion: solubility at 24 h no lower than 200 µM. Met?
## Result -1

## Task Could you tell me if the measured solubility at 24 h of C[C@@H]1Cc2c(ccc3[nH]ncc23)[C@@H](c2cnc(NC3CN(CCCF)C3)cn2)N1CC1(F)CC1 [Example 55] reaches 200 µM or more?
## Result 1

## Task Determine whether this compound has solubility at 24 h no lower than 200 µM: C[C@@H]1Cc2c(ccc3[nH]ncc23)[C@@H](c2ccc(NC3CN(CCCF)C3)c(F)n2)N1CC(F)(F)F [Example 29]
## Result 1

## Task Given C[C@@H]1Cc2c(ccc3[nH]ncc23)[C@@H](c2ccc(NC3CN(CCCF)C3)c(F)c2)N1CC(F)(F)F [Example 41] , state whether its solubility at 24 h is at least 200 µM.
## Result -1

## Task Assess whether reported solubility at 24 h for C[C@@H]1Cc2c(ccc3[nH]ncc23)[C@@H](c2ccc(NC3CN(CCCF)C3)cc2)N1CC(F)(F)F [Example 27] sits at 200 µM or higher.
## Result 1

## Task Confirm if solubility at 24 h reported for the compound C[C@@H]1Cc2c(ccc3[nH]ncc23)[C@@](C)(c2ccc(NC3CN(CCCF)C3)cn2)N1CC(F)F [Example 44] is 200 µM or above.
## Result 1
